Measured values drawn from patent US4734428A for this set.

Assay: acute toxicity (LD50, mice)
Conditions: mouse, in vivo, oral route, 14 days, read-out: LD50 % oral route
Readings of LD50 at 336 h for the listed compounds
reported_metric: LD50 at 336 h (mg/kg)

INSERT INTO results (compound, value_operator, number) VALUES
  ('CCC(CN(C)C)(c1ccccc1)n1ccnc1C (stereo not drawn)', '=', 393),
  ('CCC(CN(C)C)(c1ccccc1)n1ccnc1 (stereo not drawn)', '=', 285),
  ('CCc1nc(C)cn1C(CC)(CN(C)C)c1ccccc1 (stereo not drawn)', '=', 298),
  ('CCC(Cn1ccnc1)(c1ccccc1)N(C)C (single isomer, unassigned) [EX. 12]', '=', 780),
  ('CCC(Cn1cnc(-c2ccccc2)c1-c1ccccc1)(c1ccccc1)N(C)C (stereo not drawn)', '>', 1150),
  ('CCC(Cn1ccnc1C)(c1ccccc1)N(C)C (stereo not drawn)', '=', 500),
  ('CN(C)C(C)(C)Cn1ccnc1', '>', 1180),
  ('CCC(CN(C)C)(c1ccccc1)n1cnc(-c2ccccc2)c1-c1ccccc1 (stereo not drawn)', '>', 1150),
  ('CCCCCC(Cn1ccnc1)(c1ccccc1)N(C)C (stereo not drawn)', '=', 287),
  ('CN(C)CC(C)(C)n1ccnc1', '>', 1180),
  ('CN(C)C(C)(Cn1ccnc1)c1ccc(-c2ccccc2)cc1 (stereo not drawn)', '=', 183),
  ('CCC(CN(C)C)(c1ccccc1)n1ccnc1-c1ccccc1 (stereo not drawn)', '=', 840),
  ('CCCCCC(CN(C)C)(c1ccccc1)n1ccnc1 (stereo not drawn)', '=', 562),
  ('CN(C)C(C)(COc1ccc(Cl)cc1)Cn1ccnc1 (stereo not drawn)', '=', 86),
  ('CCC(Cc1ccccc1)(Cn1ccnc1)N(C)C (stereo not drawn)', '=', 480),
  ('CCC(Cn1ccnc1)(c1ccccc1)N(C)C (stereo not drawn) [Ex. 1A]', '=', 559),
  ('COc1ccc(CC(C)(Cn2ccnc2)N(C)C)cc1 (stereo not drawn)', '=', 758),
  ('CCC(Cc1ccccc1)(CN(C)C)n1ccnc1 (stereo not drawn)', '=', 384);
